This collection of values is drawn from patent US20250250357A1.

Recorded OD450 by entry
# testedOn: T1, human MSLN-R3 protein (human, UniProt Q13421 487-598)
# T1 construct: also called hMSLN-R3
# protocol: ELISA on coated antigen, antibody 1 nM
Write the answer as a number in OD450, unit excluded.

[[record]]
binder = "F7.44.20-H4 (scFv, not shown: small tags and cut ends, also called S009-F7.44.20 humanized antibody VH1 + VL4) scFv: EVQLVQSGAEVKKPGASVKVSCKASGYTFTDYNMDWVRQAPGQGLEWMGDINPSTGGTIYNQKFNGRVTMTEDKSTSTVYMELSSLRSEDTAVYYCARRRIGTGYFDVWGQGTTVTVSSGGGGSGGGGSGGGGSEIVLTQSPATLSLSPGERATLSCSASSSVISSYLSWYQQKPGSSPRLLIYRTSNLASGIPARFSGSGSGTDYTLTISSLEPEDFAVYYCHQWSSFPYTFGGGTKVEIK"
measurementkind = "OD450"
readoutunit = "OD450"
reading = 0.74


Exercise: Item under review: F7.44.20-H14 (scFv, not shown: small tags and cut ends, also called S009-F7.44.20 humanized antibody VH2a + VL2) scFv: EVQLVQSGAEVKKPGASVKVSCKASGYTFTDYNMDWVRQAPGQGLEWMGDINPSTGGTIYNQKFSGRVTMTEDKSASTVYMELSSLRSEDTAVYYCARRRIGTGYFDVWGQGTTVTVSSGGGGSGGGGSGGGGSEIVLTQSPDFQSVTPKEKVTITCSASSSVISSYLSWYQQKPDQSPKLLIYRTSNLASGVPSRFSGSGSGTDYTLTINSLEAEDAATYYCHQWSSFPYTFGGGTKVEIK . Reported OD450?
Key: 0.66

Exercise: Item under review: F7.44.20-H5 (scFv, not shown: small tags and cut ends, also called S009-F7.44.20 humanized antibody VH1a + VL1) scFv: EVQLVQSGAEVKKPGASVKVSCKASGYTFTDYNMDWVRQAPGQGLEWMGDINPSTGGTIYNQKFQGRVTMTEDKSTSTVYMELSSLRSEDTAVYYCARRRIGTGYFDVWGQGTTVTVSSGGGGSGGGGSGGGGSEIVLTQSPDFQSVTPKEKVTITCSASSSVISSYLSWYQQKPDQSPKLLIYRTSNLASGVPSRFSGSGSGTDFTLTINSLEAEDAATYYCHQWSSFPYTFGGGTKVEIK . Reported OD450?
Key: 0.8
